# measured_on: T1, extracellular domain of GC-A recombinant protein with a C-terminal His-tag (human), P16066
# T1 chain: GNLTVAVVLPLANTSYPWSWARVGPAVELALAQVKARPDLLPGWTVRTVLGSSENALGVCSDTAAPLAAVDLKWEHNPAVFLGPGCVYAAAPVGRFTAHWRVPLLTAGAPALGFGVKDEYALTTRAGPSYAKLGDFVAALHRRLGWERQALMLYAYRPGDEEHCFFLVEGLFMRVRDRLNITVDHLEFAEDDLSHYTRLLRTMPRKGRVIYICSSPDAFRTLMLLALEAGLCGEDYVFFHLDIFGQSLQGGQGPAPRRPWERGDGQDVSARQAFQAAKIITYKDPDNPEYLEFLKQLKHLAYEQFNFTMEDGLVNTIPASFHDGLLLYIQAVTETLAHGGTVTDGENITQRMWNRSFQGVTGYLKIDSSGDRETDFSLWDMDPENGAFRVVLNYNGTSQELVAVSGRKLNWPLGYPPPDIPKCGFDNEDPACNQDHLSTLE
# measurement_description: SPR (BI-4500, 25 C); His-tagged GC-A extracellular domain immobilized on Ni-NTA chip; CRRL 191 injected at 0.125, 0.25, 0.5, 1 and 2 nM
measurement_name: pKd
Please express pKd as -log10 of the molar concentration.

Entry RALLTAPRSLRRSSCFGHKIDRINHVSNLGCNSFRYRITAREDKQGWA (modifications not checked) [CRRL 191] ; pKd = 9.89
